Reference source: patent US20250026849A1

- target-under-test: T1, CD123 (Homo sapiens (Human), UniProt P26951 19-305, limits assumed)
- T1 construct: The CD123 construct used in the ELISA is not described; also called CD123-Signal
- T1 sequence: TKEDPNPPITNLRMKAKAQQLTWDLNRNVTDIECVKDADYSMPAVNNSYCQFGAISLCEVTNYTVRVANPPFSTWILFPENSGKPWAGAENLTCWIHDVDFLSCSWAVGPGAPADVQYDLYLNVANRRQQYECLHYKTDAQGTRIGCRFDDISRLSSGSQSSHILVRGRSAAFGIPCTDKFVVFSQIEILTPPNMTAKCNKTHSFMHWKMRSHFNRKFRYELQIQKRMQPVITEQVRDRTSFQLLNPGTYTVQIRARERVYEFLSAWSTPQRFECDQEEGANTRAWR
- assay-remarks: ELISA
- Design: unit not given here
As shown below, each of these binders has a reported ELISA_avg value.
The answer should be written as a number, with no unit following it.

Examples with their reported ELISA_avg follow.
- binder: "D domain of SEQ ID NO: 395 (designed binder) MGSWVEFDQRLGAIWDRLVALGGSEAELAAFEKEIAAFESELQAYKGKGNPEVEHLRQGAAVIRDDLQAYRHN"
  ELISA_avg: 5.3
- binder: "D domain of SEQ ID NO: 597 (designed binder) MGSWYEFYERLWAIDDRLWALGGSEAELAEFEDSIATFEPSLQMYKGKGNPEVEALVAEAWAIFDELAAYRHN"
  ELISA_avg: 3.6
- binder: "D domain of SEQ ID NO: 486 (designed binder) MGSWSFFKEELANIQVYLEALGGSEAELAWFEEDIADFEEDLQHYKGKGNPEVEALRKEAAAIRDELQAYRHN"
  ELISA_avg: 3.8
- binder: "D domain of SEQ ID NO: 518 (designed binder) MGSWQYFKDDLAEIKMVLEALGGSEAELAWFEADIAMFEDDLQIYKGKGNPEVEALRKEAAAIRDELQAYRHN"
  ELISA_avg: 3.6
- binder: "D domain of SEQ ID NO: 459 (designed binder) MGSWVEFIYRLDAIYDRLEALGGSEAELAAFEKEIAAFESELQAYKGKGNPEVEVLRRYAANIRNELQAYRHN"
  ELISA_avg: 17

What does the data say about its ELISA_avg? Entry: D domain of SEQ ID NO: 573 (designed binder) MGSWYEFDDRLDAIAYRLNALGGSEAELAWFEWEIAEFELDLQWYKGKGNPEVEALVWEADAIEWELEAYRHN
4.6

What value of measured ELISA_avg is listed for D domain of SEQ ID NO: 449 (designed binder) MGSWVEFNIRLDAIYERLYALGGSEAELAAFEKEIAAFESELQAYKGKGNPEVEKLRHWAASIRRELQAYRHN ?
13.4

I'd like to know its ELISA_avg. The binder in question is D domain of SEQ ID NO: 575 (designed binder) MGSWEEFDQRLDAIDVRLYALGGSEAELAEFEFDIAAFEEWLQLYKGKGNPEVEALNMEAFAITDELCAYRHN
3.6
